Where these numbers come from: ChEMBL document CHEMBL5579826

system.name: Interleukin-1 beta (Homo sapiens)
experiment.summary: Inhibition of IL-1beta in PMA-differentiated human THP-1 cells at 200 nM co-incubated with compound and LPS for 24 hrs by ELISA relative to control
Type: cell-based
measure: inhibition (%)

1) COc1cc(/C=C2/C(=O)N(CCOCCOCCOCCOc3ccc(S(=O)(=O)NC(=O)Nc4c5c(cc6c4CCC6)CCC5)cc3)c3ccc(Br)cc32)cc(Br)c1O    32.7

P: COc1cc(/C=C2/C(=O)N(CCCCCCCCCCCCOc3ccc(S(=O)(=O)NC(=O)Nc4c5c(cc6c4CCC6)CCC5)cc3)c3ccc(Br)cc32)cc(Br)c1O
Q: COc1cc(/C=C2/C(=O)N(CCCCCCCCOc3ccc(S(=O)(=O)NC(=O)Nc4c5c(cc6c4CCC6)CCC5)cc3)c3ccc(Br)cc32)cc(Br)c1O
Query: # min-compare on inhibition between P and Q Indicate your choice by writing its label.
Response: Q
